Quick list: melting point per entry.

O=C(Nc1cc(Cl)ccc1Oc1ccc(Cl)cc1)c1ccncc1: 214 to 215 °C
C#CCOC(=O)c1ccc(Br)s1: 65 to 68 °C
O=C(O)CCCCCSC1c2ccccc2COc2ccc(OCc3ccc4ccc(Cl)cc4n3)cc21 (stereo not given): 160 to 166 °C
Cc1c(C)c(N2CCN(c3c(C)c(C)c4c(c3C)CC(C)(C)O4)CC2)c(C)c2c1OC(C)(C)C2: 256 to 260 °C
COC(=O)C(C)Oc1ccc(Nc2cc(NC(C)=O)c(F)cc2[N+](=O)[O-])cc1 (stereo not given): 126 to 128 °C

Next molecule, please.
Tell us which melting point value is on record for "COc1cc(OS(C)(=O)=O)ccc1-c1nc2cc3c(cc2[nH]1)NC(=O)C3(C)C"
233 to 235 °C

---

Quick list: melting point per entry.

Worked examples, 8 molecules total:
CCCC(=O)Nc1n[nH]c2cc(Cl)c(-c3ccc(OCc4ccccc4)cc3)cc12: 230 °C
CCCCc1nc2ccc(NC(=O)C3CCCCC3C(=O)O)cc2n1Cc1ccc(-c2ccccc2C(=O)O)cc1 (centres undefined): 186 to 188 °C
C=CCc1ccc(C=CC(=O)c2ccc(OCC=C(C)C)cc2OCC(=O)O)cc1: 125 to 126 °C
COc1cc(C(=O)CBr)cc([N+](=O)[O-])c1O: 147 to 149 °C
COc1ccc(S(=O)(=O)Nc2nc(-c3cccc([N+](=O)[O-])c3)cs2)cc1OC: 185 °C
O=C(NC1CCCCC1)OC1c2nccnc2C(=O)N1c1ccc2ccc(Cl)nc2n1 (centres undefined): 264 °C
COCCc1nc2c(N)nc3ccccc3c2n1CCCCCS(=O)(=O)c1ccccc1: 172 to 175 °C
CC(=O)c1c(Sc2cc(Cl)cc(Cl)c2)[nH]c2ccc(Cl)cc12: 180 to 185 °C

Tell us which melting point value is on record for "CCOC(=O)c1c(-c2ccccc2C)c2cc(Cl)ccc2oc1=O"
65 to 66 °C

---

Quick list: melting point per entry.

Worked examples, 4 molecules total:
CC(=O)N1CCN(Cc2nnc(-c3cc4cccc(N(C)S(=O)(=O)c5cccs5)c4[nH]3)s2)CC1: 194 to 195 °C
Cn1nc2cccc(OCCF)c2c1S(N)(=O)=O: 178 to 180 °C
Cc1sc(-c2ccccc2)nc1COc1ccc(CON=C(CCC(=O)O)c2ccccc2)cc1: 99 to 100 °C
Cc1nnc(-c2ccccc2F)n2nc(OCc3cn(C)nn3)c(-c3ccsc3)c12: 181 to 186 °C

Tell us which melting point value is on record for "CSC(=S)NCc1ccc(O)cc1"
90 to 91 °C

Tell us which melting point value is on record for "CCOC(=O)COc1ccccc1C(=O)Nc1ccc(Sc2ccccc2-c2nnn[nH]2)cc1"
97 to 99 °C

Tell us which melting point value is on record for "O=C(C=Cc1ccc(F)c(F)c1)c1ccccc1O"
131 to 133 °C

Tell us which melting point value is on record for "O=C(O)c1cn(-c2ccc(F)cc2F)c2c(F)c(F)c(F)c(F)c2c1=O"
250 to 252 °C

Tell us which melting point value is on record for "COc1ccc(Cn2cnc3c(-c4ccco4)nc(OCc4ccccc4)nc32)cc1"
122 °C

---

readout.name: melting point

COc1ccc(CCc2nnc(-c3ccc4nccn4c3)o2)cc1C(F)(F)F: 150 to 151 °C
O=C/C=C/C=C/c1ccc(OCC(F)(F)C(F)F)nc1: 88 to 89 °C
CC(c1cccc(O)c1)N(C)C (centres undefined): 85 to 86 °C

Next compound, please.
Tell us which melting point value is on record for Cc1nc(N2C[C@@H](C)C[C@H](C)C2)c2nc(-c3ccccc3)cc-2[nH]1 (relative stereo)
226 to 227 °C

---

Quick list: melting point per entry.

Worked examples, 5 compounds total:
CCCCCCCCCCCCCCCC(=O)N[C@H]1CCCNC(=O)C1: 99 to 100 °C
CC(=O)n1nc(-c2c(C)cc(C)c([N+](=O)[O-])c2C)n2nc(C(C)(C)C)cc12: 169 to 171 °C
COc1cc(OCc2nc(-c3ccco3)oc2C)ccc1CO: 117 to 118 °C
Nc1snc2nc(N3CCCC3)sc12: 262 to 264 °C
C=CCN(CC=C)CC(=O)N1c2ccccc2N(CCCC)C(=O)c2cnc(-c3ccccc3)nc21: 137 to 138 °C

Tell us which melting point value is on record for "O=C(O)c1ccc2c3c(ccc(C(O)=NC4CCCCC4)c13)CC2"
264 to 265 °C

Tell us which melting point value is on record for "COC(=O)c1cc2ccncc2c2sc3ccccc3c12"
174 to 176 °C

Tell us which melting point value is on record for "CCn1ccc2nc(N3CCN(c4ncc5cc(OC)c(OC)cc5n4)CC3)ncc2c1=O"
259 to 262 °C

Tell us which melting point value is on record for "CCOC(=O)Cc1c(C)nc(SCc2ccc(OC)cc2)n1C"
158 to 160 °C

Tell us which melting point value is on record for Nc1ccccc1CCCC(C(=O)O)N1C(=O)c2ccccc2C1=O (stereo unspecified)
258 to 260 °C

Tell us which melting point value is on record for "COc1ccc2c(C(F)(F)F)c(CC(=O)O)c(=O)oc2c1"
198 to 200 °C

Tell us which melting point value is on record for O=C(Cc1ccc2ccccc2n1)NC1CCC2(O)C3Cc4ccc(O)c5c4C2(CCN3CC2CC2)C1O5 (stereo unspecified)
212 to 214 °C

Tell us which melting point value is on record for "CCOC(=O)c1sc(Oc2ccc(NC(=O)OC(C)(C)C)cc2)c2c1CCc1cnn(C)c1-2"
186 to 187 °C

Tell us which melting point value is on record for "O=c1[nH]c2cc(F)ccc2c(=O)n1S(=O)(=O)c1ccc(Cl)cc1"
> 200 °C

Tell us which melting point value is on record for "CCc1[nH]n(C2CCCC2)c2nc(-c3ccccc3OCCCN3CCOCC3)nc(=O)c1-2"
220 to 221 °C

Tell us which melting point value is on record for CCC1C(C)=NN=C(c2cc(OC)c(OC)c(OC)c2)c2cc(OC)c(OC)cc21 (stereo unspecified)
152 to 155 °C

Tell us which melting point value is on record for "COc1ccnc(Nc2nc(-c3ccncc3)cs2)c1"
190 to 192 °C

Tell us which melting point value is on record for CCOC(=O)C1Cc2cc3c(-c4ccccc4F)noc3c(C)c2O1 (stereo unspecified)
124 to 125 °C

Tell us which melting point value is on record for "CCc1nn2c(N3CCNCC3)cc(C)nc2c1S(=O)(=O)c1ccccc1"
150 to 151 °C

Tell us which melting point value is on record for "Cc1ccc(S(=O)(=O)CNc2nc(C)cc(C)n2)cc1"
191 to 194 °C

---

readout.name: melting point

CCC(CO)Nc1nc(NCc2ccccc2N)c2ncn(C(C)C)c2n1 (racemic): 149 to 151 °C

Next compound, please.
Tell us which melting point value is on record for "CNc1ccc(-c2[nH]cnc2-c2cc(OC)cc(OC)c2)cc1F"
182 to 184 °C

---

Quick list: melting point per entry.

Worked examples, 4 molecules total:
FC(F)(F)c1cccc(-c2ccnc3ccnn23)c1: 103 to 104 °C
COc1ccc(-c2cc(=Nc3c(C)cc(C)cc3C)n(C)c(=NCc3ccccc3)n2C)cc1OC: 97 to 100 °C
C=C(C(=O)O)c1ccc(-c2ccccc2)c(F)c1: 169 to 172 °C
COc1ccc(Cc2cccc(C(O)(C3=NCCCN3)c3ccccc3)c2)cc1 (stereo unspecified): 92 °C

Tell us which melting point value is on record for "CCOC(OCC)c1cc(NC(c2ccccc2)(c2ccccc2)c2ccccc2)c(F)c(C2CCC2)n1"
121 to 122 °C

Tell us which melting point value is on record for CC(C(=O)Nc1ccc2c(c1)OCO2)N1CCN(c2ccccn2)CC1 (stereo unspecified)
189 to 191 °C

Tell us which melting point value is on record for "COc1ccc([N+](=O)[O-])cc1OCCCCl"
85 to 87 °C

Tell us which melting point value is on record for "C1=Nc2ccccc2OC1"
126 to 129 °C

Tell us which melting point value is on record for "CC(C)(C)c1ccc(-c2nc(COc3cccc4cc(NS(=O)(=O)C(F)(F)F)ccc34)cs2)cc1"
174 to 175 °C

Tell us which melting point value is on record for "O=C1NC(=O)C2=C1c1c([nH]c3ccccc13)Cc1[nH]c3ccccc3c12"
> 350 °C

Tell us which melting point value is on record for "CS(=O)(=O)Nc1cc2occ(C(=O)O)c(=O)c2cc1Oc1ccccc1"
> 250 °C

Tell us which melting point value is on record for "Cn1nc(C(F)(F)F)cc1-c1ccc(F)cc1F"
37 to 38 °C

Tell us which melting point value is on record for N#Cc1ccc2c(c1)C(c1ncnc3c1cnn3C1CCCC1)C(=O)N2 (stereo unspecified)
> 300 °C

Tell us which melting point value is on record for "Nc1ccc(S(=O)(=O)N2CCCC(c3ccc(Cl)cc3)=N2)cc1"
205 to 206 °C
